Test: Hepatocyte clearance assay, human
Format: in vitro ADME
Conditions: cryopreserved primary human hepatocytes, average value from two experiments, read-out: Human heps Clint
Field: class. Source value: hepatocyte CLint at 1 µM. Ranges: bin 1 (below 5 µL/min/1e6 cells), bin 2 (5 µL/min/1e6 cells to below 10 µL/min/1e6 cells), bin 3 (10 µL/min/1e6 cells or more)

Each compound maps to one class by hepatocyte CLint at 1 µM. Which class for Cc1n[nH]c2cc(/C=C/C(=O)N[C@H]3c4ccccc4C[C@@H]3OCC3COC3)ccc12 [Example 66] ? bin 3

Looking at Cc1c(F)cccc1NC(=O)/C=C/c1ccc2c(C#N)n[nH]c2c1 [Example 51] , which class would you pick? bin 3

Which class is correct for the following compound? Cc1cccc(C)c1NC(=O)/C=C/c1ccc2c(c1)NC(=O)C2 [Example 19] bin 1

GET /class?item= Cc1c(F)cccc1NC(=O)/C=C/c1ccc2c(C)n[nH]c2c1 [Example 37] bin 3

Looking at Cc1c(F)cccc1NC(=O)/C=C/c1ccc2c(c1)[nH]c(=O)n2C [Example 7] , which class would you pick? bin 2

GET /class?item= CO[C@H]1Cc2ccccc2[C@@H]1NC(=O)/C=C/c1ccc2c(C)n[nH]c2c1 [Example 54] bin 3

Which bin should I file Cc1c(F)cccc1NC(=O)/C=C/c1ccc2oc(=O)[nH]c2c1 [Example 6] under? bin 1

# bin label for COc1cc(C)c(NC(=O)/C=C/c2cc3[nH]nc(C)c3cc2F)c(C)n1 [Example 95] bin 1
